Provide the reported recombinant UMI read abundance (log10) of each item.
assay: recombinant UMI read abundance after kanamycin selection (control-corrected) (log10(CPM+1)); higher = more efficient recombination; extreme values may be limits of the assay; sequences stand for … in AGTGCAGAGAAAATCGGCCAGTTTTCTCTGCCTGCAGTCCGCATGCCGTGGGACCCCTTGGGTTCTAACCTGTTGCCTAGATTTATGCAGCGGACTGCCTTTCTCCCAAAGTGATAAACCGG…AGGTTGGTTTCACT; site = the 11-nt donor

Input line: What value of recombinant UMI read abundance (log10) has been recorded for this entry: AGTCTGGCATGGACCGGTTTTCCCGGTAATCCGTATTTGAA (site AGTCTGGCTTT)
Output line: 1.19

Input line: What value of recombinant UMI read abundance (log10) has been recorded for this entry: AGCCTAGCATGGACCGGTTTTCCCGGTAATCCGTATTTGCT (site AGCCTAGCTAA)
Output line: 0.0111

Input line: What value of recombinant UMI read abundance (log10) has been recorded for this entry: TAATTAGCATGGACCGGTTTTCCCGGTAATCCGTATTTGGG (site TAATGAGCTCC)
Output line: 0.0311

---

test: recombinant UMI read abundance after kanamycin selection (control-corrected) (log10(CPM+1)); higher = more efficient recombination; extreme values may be limits of the assay; sequences stand for … in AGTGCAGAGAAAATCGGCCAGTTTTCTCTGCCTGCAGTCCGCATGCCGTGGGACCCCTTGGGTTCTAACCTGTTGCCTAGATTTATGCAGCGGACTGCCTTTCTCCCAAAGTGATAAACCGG…AGGTTGGTTTCACT; site = the 11-nt donor
property-measured: recombinant UMI read abundance (log10)
Just the number, please, no unit attached.

Input line: What value of recombinant UMI read abundance (log10) has been recorded for this entry: AACCGTCCATGGACCGGTTTTCCCGGTAATCCGTATTTGAT (site AACCGTCCTAC)
Output line: 0.0101

Input line: What value of recombinant UMI read abundance (log10) has been recorded for this entry: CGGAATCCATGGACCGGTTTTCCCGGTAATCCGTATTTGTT (site CGCAATCCTCA)
Output line: 0.00634

Input line: What value of recombinant UMI read abundance (log10) has been recorded for this entry: AAGAACGCATGGACCGGTTTTCCCGGTAATCCGTATTTGGG (site AAGAACGCTCC)
Output line: 0.564

Input line: What value of recombinant UMI read abundance (log10) has been recorded for this entry: TCCACCGCATGGACCGGTTTTCCCGGTAATCCGTATTTGCG (site TACACCGCTCG)
Output line: 0.0145

Input line: What value of recombinant UMI read abundance (log10) has been recorded for this entry: CTAGTACCATGGACCGGTTTTCCCGGTAATCCGTATTTGAT (site CTAGTATCTGT)
Output line: 1.35

Input line: What value of recombinant UMI read abundance (log10) has been recorded for this entry: CCGGAGTCATGGACCGGTTTTCCCGGTAATCCGTATTTGCC (site CCGGAGTCTGG)
Output line: 1.55

Input line: What value of recombinant UMI read abundance (log10) has been recorded for this entry: CGGGATCCATGGACCGGTTTTCCCGGTAATCCGTATTTGTT (site CGGTATCCTAA)
Output line: 0.243

Input line: What value of recombinant UMI read abundance (log10) has been recorded for this entry: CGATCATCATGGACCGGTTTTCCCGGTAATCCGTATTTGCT (site CGAACATCTAT)
Output line: 0.00401

Input line: What value of recombinant UMI read abundance (log10) has been recorded for this entry: CTAAGCGCATGGACCGGTTTTCCCGGTAATCCGTATTTGAA (site CTAAGCGCTTT)
Output line: 2.02

Input line: What value of recombinant UMI read abundance (log10) has been recorded for this entry: TTATACCCATGGACCGGTTTTCCCGGTAATCCGTATTTGAG (site TTATACCCTCT)
Output line: 0.00206

Input line: What value of recombinant UMI read abundance (log10) has been recorded for this entry: AATTATGCATGGACCGGTTTTCCCGGTAATCCGTATTTGGT (site AATTATGCTCC)
Output line: 0.00684

Input line: What value of recombinant UMI read abundance (log10) has been recorded for this entry: CCAGCAGCATGGACCGGTTTTCCCGGTAATCCGTATTTGTC (site CCAGCAGCTGA)
Output line: 0.4

Input line: What value of recombinant UMI read abundance (log10) has been recorded for this entry: CTAGCAGCATGGACCGGTTTTCCCGGTAATCCGTATTTGAC (site CTAGCAGCTGT)
Output line: 3.18

Input line: What value of recombinant UMI read abundance (log10) has been recorded for this entry: GTAGGCACATGGACCGGTTTTCCCGGTAATCCGTATTTGTA (site GTAAGCACTTA)
Output line: 1.08

Input line: What value of recombinant UMI read abundance (log10) has been recorded for this entry: CGTTAGACATGGACCGGTTTTCCCGGTAATCCGTATTTGAG (site CGTTAGGCTCT)
Output line: 0.214

Input line: What value of recombinant UMI read abundance (log10) has been recorded for this entry: AGTGTAACATGGACCGGTTTTCCCGGTAATCCGTATTTGCT (site ATTGTAACTAG)
Output line: 1.12

Input line: What value of recombinant UMI read abundance (log10) has been recorded for this entry: GGTCACCCATGGACCGGTTTTCCCGGTAATCCGTATTTGTT (site GGCCACCCTAA)
Output line: 0.0117

Input line: What value of recombinant UMI read abundance (log10) has been recorded for this entry: CCGTTTGCATGGACCGGTTTTCCCGGTAATCCGTATTTGTG (site CCGTTTGCTCA)
Output line: 0

Input line: What value of recombinant UMI read abundance (log10) has been recorded for this entry: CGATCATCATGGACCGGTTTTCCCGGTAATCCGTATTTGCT (site CGATAATCTAC)
Output line: 0

Input line: What value of recombinant UMI read abundance (log10) has been recorded for this entry: CACAAACCATGGACCGGTTTTCCCGGTAATCCGTATTTGGT (site GACAAACCTAC)
Output line: 0

Input line: What value of recombinant UMI read abundance (log10) has been recorded for this entry: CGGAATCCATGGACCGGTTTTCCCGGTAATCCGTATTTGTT (site CGGAATTCTTA)
Output line: 0

Input line: What value of recombinant UMI read abundance (log10) has been recorded for this entry: ACCTAAACATGGACCGGTTTTCCCGGTAATCCGTATTTGGG (site ACCTAAACTCC)
Output line: 0.256

Input line: What value of recombinant UMI read abundance (log10) has been recorded for this entry: AAGTATGCATGGACCGGTTTTCCCGGTAATCCGTATTTGGA (site AAATATGCTTC)
Output line: 0.814

---

Provide the reported recombinant barcode read abundance (log10) of each item.
experiment: recombinant barcode read abundance after kanamycin selection (control-corrected) (log10(CPM+1)); higher = more efficient recombination; sequences stand for … in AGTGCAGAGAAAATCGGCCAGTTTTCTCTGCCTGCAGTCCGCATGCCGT…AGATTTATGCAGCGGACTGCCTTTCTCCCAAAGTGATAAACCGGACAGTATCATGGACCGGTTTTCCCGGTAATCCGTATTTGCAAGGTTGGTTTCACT; site = the 11-nt target
Just the number, please, no unit attached.

Input line: What value of recombinant barcode read abundance (log10) has been recorded for this entry: GCTGCGACTTGGGTTCTAACCTGTTGCCT (site GCAGCGACTAG)
Output line: 0.17

Input line: What value of recombinant barcode read abundance (log10) has been recorded for this entry: GGTGGCCCTTGGGTTCTAACCTGTTGCCT (site GCTGGCCCTAG)
Output line: 0.22

Input line: What value of recombinant barcode read abundance (log10) has been recorded for this entry: AGTTGTCCTTGGGTTCTAACCTGTTGCCT (site AGTTGTCCTAA)
Output line: 0.174

Input line: What value of recombinant barcode read abundance (log10) has been recorded for this entry: GTGGAAGCTTGGGTTCTAACCTGTTGCCA (site GTGGAAGCTTG)
Output line: 0.238

Input line: What value of recombinant barcode read abundance (log10) has been recorded for this entry: GGCAGTTCTTGGGTTCTAACCTGTTGCTT (site GGCAGGTCTAA)
Output line: 0.0765

Input line: What value of recombinant barcode read abundance (log10) has been recorded for this entry: TAGAATGCTTGGGTTCTAACCTGTTGCCT (site TAGAATGCTAG)
Output line: 0.921

Input line: What value of recombinant barcode read abundance (log10) has been recorded for this entry: TTGATAGCTTGGGTTCTAACCTGTTGCTA (site ACCGCGTCTAT)
Output line: 0.174

Input line: What value of recombinant barcode read abundance (log10) has been recorded for this entry: CGATCCACTTGGGTTCTAACCTGTTGCCT (site AGATCCACTAG)
Output line: 0.0256

Input line: What value of recombinant barcode read abundance (log10) has been recorded for this entry: CAGTCTGCTTGGGTTCTAACCTGTTGCCT (site CACTCTGCTAG)
Output line: 0.0321

Input line: What value of recombinant barcode read abundance (log10) has been recorded for this entry: CCATCTCCTTGGGTTCTAACCTGTTGCCT (site GCATCTCCTAG)
Output line: 0.127

Input line: What value of recombinant barcode read abundance (log10) has been recorded for this entry: GCCCAGCCTTGGGTTCTAACCTGTTGCGG (site ACCAAGCCTCC)
Output line: 0.0607

Input line: What value of recombinant barcode read abundance (log10) has been recorded for this entry: CCTTCCACTTGGGTTCTAACCTGTTGCCT (site ACTTCCACTAG)
Output line: 0.00909

Input line: What value of recombinant barcode read abundance (log10) has been recorded for this entry: CACTGCTCTTGGGTTCTAACCTGTTGCCT (site CACTGTTCTAG)
Output line: 0.173

Input line: What value of recombinant barcode read abundance (log10) has been recorded for this entry: GTATGAGCTTGGGTTCTAACCTGTTGCGG (site GTATGTGCTCC)
Output line: 0.255

Input line: What value of recombinant barcode read abundance (log10) has been recorded for this entry: CACGCGCCTTGGGTTCTAACCTGTTGCGG (site GCTCATACTAG)
Output line: 0.00629

Input line: What value of recombinant barcode read abundance (log10) has been recorded for this entry: TTCTGGGCTTGGGTTCTAACCTGTTGCCT (site TTCTGGGCTAG)
Output line: 0

Input line: What value of recombinant barcode read abundance (log10) has been recorded for this entry: GAGGGCTCTTGGGTTCTAACCTGTTGCGG (site AGTTCACCTTA)
Output line: 0.0921

Input line: What value of recombinant barcode read abundance (log10) has been recorded for this entry: ACGCATACTTGGGTTCTAACCTGTTGCCT (site ACACATACTAG)
Output line: 0.196

Input line: What value of recombinant barcode read abundance (log10) has been recorded for this entry: CTCCAACCTTGGGTTCTAACCTGTTGCCT (site CGCCCACCTAG)
Output line: 0.144

Input line: What value of recombinant barcode read abundance (log10) has been recorded for this entry: CGATCCACTTGGGTTCTAACCTGTTGCCT (site CGATCCACTAG)
Output line: 0.0891

Input line: What value of recombinant barcode read abundance (log10) has been recorded for this entry: TGACACACTTGGGTTCTAACCTGTTGCTG (site TGACACACTCA)
Output line: 2.22

Input line: What value of recombinant barcode read abundance (log10) has been recorded for this entry: CCGATCACTTGGGTTCTAACCTGTTGCCT (site CCGATCACTAG)
Output line: 1.14

Input line: What value of recombinant barcode read abundance (log10) has been recorded for this entry: TATGTAGCTTGGGTTCTAACCTGTTGCCT (site TATGTAGCTCG)
Output line: 0.353

Input line: What value of recombinant barcode read abundance (log10) has been recorded for this entry: CTATAGACTTGGGTTCTAACCTGTTGCCT (site CTATAGACTAG)
Output line: 1.11

Input line: What value of recombinant barcode read abundance (log10) has been recorded for this entry: TGTCCCGCTTGGGTTCTAACCTGTTGCCT (site TGTATCGCTAG)
Output line: 0.0575

Input line: What value of recombinant barcode read abundance (log10) has been recorded for this entry: CAGTTGGCTTGGGTTCTAACCTGTTGCCT (site CAGTTAGCTAG)
Output line: 0.04

Input line: What value of recombinant barcode read abundance (log10) has been recorded for this entry: CCTGAGACTTGGGTTCTAACCTGTTGCAG (site CCTGAGACTCT)
Output line: 1.37

Input line: What value of recombinant barcode read abundance (log10) has been recorded for this entry: GAAGAGGCTTGGGTTCTAACCTGTTGCCA (site TGTCTCCCTAC)
Output line: 0.115

Input line: What value of recombinant barcode read abundance (log10) has been recorded for this entry: CTATAGACTTGGGTTCTAACCTGTTGCCT (site CTATTGACTAG)
Output line: 0.317

Input line: What value of recombinant barcode read abundance (log10) has been recorded for this entry: CCGAATGCTTGGGTTCTAACCTGTTGCCT (site CCGCATGCTAG)
Output line: 0.0438

Input line: What value of recombinant barcode read abundance (log10) has been recorded for this entry: ATGCTTGCTTGGGTTCTAACCTGTTGCCA (site TGTGCAACTCA)
Output line: 0.299

Input line: What value of recombinant barcode read abundance (log10) has been recorded for this entry: TGCGAGTCTTGGGTTCTAACCTGTTGCGT (site TGCGAGTCTAC)
Output line: 2.87

Input line: What value of recombinant barcode read abundance (log10) has been recorded for this entry: TCCGAGACTTGGGTTCTAACCTGTTGCGT (site TCCGAGACTAC)
Output line: 1.56

Input line: What value of recombinant barcode read abundance (log10) has been recorded for this entry: TCTTGCTCTTGGGTTCTAACCTGTTGCCT (site TCTTGCTCTAG)
Output line: 0.574

Input line: What value of recombinant barcode read abundance (log10) has been recorded for this entry: ACGGGTACTTGGGTTCTAACCTGTTGCCT (site ACGGGTACTAG)
Output line: 1.51

Input line: What value of recombinant barcode read abundance (log10) has been recorded for this entry: ACGCCCTCTTGGGTTCTAACCTGTTGCCT (site ACGCCCTCTAG)
Output line: 0.0283
